Assay overview: Displacement of [3H]cytisine from neuronal nicotinic acetylcholine receptor in rat brain membrane
Assay type: cell membranes
pKi: −log10 of the molar value.
Measured endpoint: pKi

- COc1cc(N2C[C@H]3CN[C@H]3C2)cnc1Br: 10.15
- Cc1ncc(N2C[C@H]3CNC[C@H]32)cc1C#N: 8.96
- COc1cc(N2C[C@@H]3CN[C@@H]3C2)cnc1Br: 8.72
- Cc1cncc(N2C[C@@H]3CNC[C@@H]32)c1: 8.96
- c1cncc(N2C[C@@H]3CN[C@@H]3C2)c1: 8.92
- Clc1ccc(N2C[C@H]3CN[C@H]3C2)cn1: 9.70

###

Experimental target: Neuronal acetylcholine receptor; alpha4/beta2 (Homo sapiens, UniProt P17787+P43681)
Sequence (P17787 whole entry): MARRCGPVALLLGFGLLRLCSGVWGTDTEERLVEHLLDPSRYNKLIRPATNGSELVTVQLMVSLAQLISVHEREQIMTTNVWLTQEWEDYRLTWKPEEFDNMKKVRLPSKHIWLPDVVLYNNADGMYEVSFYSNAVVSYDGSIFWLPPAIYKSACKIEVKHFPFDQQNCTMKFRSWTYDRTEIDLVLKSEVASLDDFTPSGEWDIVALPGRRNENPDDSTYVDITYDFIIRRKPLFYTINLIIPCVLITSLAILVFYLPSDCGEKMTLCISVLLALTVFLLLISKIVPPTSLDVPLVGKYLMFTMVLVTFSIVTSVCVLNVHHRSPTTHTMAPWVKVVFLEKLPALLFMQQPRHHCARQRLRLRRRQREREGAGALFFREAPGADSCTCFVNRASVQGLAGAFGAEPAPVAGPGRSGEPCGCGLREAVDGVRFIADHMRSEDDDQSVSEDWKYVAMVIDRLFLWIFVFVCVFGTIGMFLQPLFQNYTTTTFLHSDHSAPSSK
Sequence (P43681 whole entry): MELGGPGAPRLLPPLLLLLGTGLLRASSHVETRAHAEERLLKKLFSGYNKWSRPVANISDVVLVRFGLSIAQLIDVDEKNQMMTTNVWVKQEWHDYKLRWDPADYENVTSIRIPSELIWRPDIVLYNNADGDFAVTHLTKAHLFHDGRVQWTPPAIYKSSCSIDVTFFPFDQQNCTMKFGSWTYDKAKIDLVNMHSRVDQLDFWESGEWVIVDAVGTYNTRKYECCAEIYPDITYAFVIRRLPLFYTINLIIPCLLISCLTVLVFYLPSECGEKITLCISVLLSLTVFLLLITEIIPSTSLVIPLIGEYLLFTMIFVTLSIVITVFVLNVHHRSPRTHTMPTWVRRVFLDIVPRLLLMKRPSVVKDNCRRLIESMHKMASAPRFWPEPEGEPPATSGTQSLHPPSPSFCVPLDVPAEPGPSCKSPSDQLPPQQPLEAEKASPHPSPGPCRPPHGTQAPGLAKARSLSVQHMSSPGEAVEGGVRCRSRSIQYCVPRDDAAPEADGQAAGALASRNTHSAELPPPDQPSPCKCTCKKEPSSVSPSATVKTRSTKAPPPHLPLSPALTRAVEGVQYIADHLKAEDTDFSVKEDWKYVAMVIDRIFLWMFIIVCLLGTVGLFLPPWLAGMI
Assay overview: Agonist activity at recombinant human alpha-4-beta-2 nAChR expressed in HEK293 cells assessed as induction of calcium influx by FLIPR assay
Format: functional, cell-based
Measurement conditions: read-out: Log EC50 (converted)
Lab note: anything with EC50 below 500 nM is marked t; values at 500 nM or higher are marked f.

• N=C(NO)c1cncc(N2C[C@H]3CNC[C@H]32)c1 = f
• N#Cc1cc(N2C[C@H]3CNC[C@H]32)c[n+]([O-])c1 = f
• Cc1cncc(N2C[C@@H]3CN[C@@H]3C2)c1 = f
• Cc1cc(N2C[C@H]3CNC[C@H]32)cnc1Cl = t
• N#Cc1cncc(N2C[C@@H]3CN[C@@H]3C2)c1 = f
• Cc1ncc(N2C[C@H]3CNC[C@H]32)cc1C#N = f
• C#Cc1cncc(N2C[C@@H]3CNC[C@@H]32)c1 = f
• Cc1ncc(N2C[C@@H]3CN[C@@H]3C2)cc1C#N = f
• Clc1cc(N2C[C@H]3CN[C@H]3C2)cnc1Cl = t
• Clc1ccc(N2C[C@H]3CNC[C@H]32)cn1 = f
• COc1cncc(N2C[C@@H]3CNC[C@@H]32)c1 = f
• Brc1cncc(N2C[C@H]3CNC[C@H]32)c1 = f
• Cc1cc(N2C[C@H]3CN[C@H]3C2)cnc1Cl = t
• c1cncc(N2C[C@H]3CNC[C@H]32)c1 = f
• Clc1cc(N2C[C@H]3CNC[C@H]32)cnc1Cl = t
• Cc1ncc(N2C[C@H]3CN[C@H]3C2)cc1C#N = t
• Clc1ccc(N2C[C@@H]3CN[C@@H]3C2)cn1 = t
• Clc1ccc(N2C[C@H]3CN[C@H]3C2)cn1 = t
• COc1cc(N2C[C@H]3CN[C@H]3C2)cnc1Br = t
• Clc1cncc(N2C[C@@H]3CN[C@@H]3C2)c1 = f
• COc1cncc(N2C[C@H]3CNC[C@H]32)c1 = f
